target: Phosphatidylinositol 4,5-bisphosphate 3-kinase catalytic subunit gamma isoform (Homo sapiens); experiment: Inhibition of human full length PI3K p110gamma using […] as substrate measured after 30 mins by TR-FRET assay
Sequence (P48736 whole entry, canonical isoform): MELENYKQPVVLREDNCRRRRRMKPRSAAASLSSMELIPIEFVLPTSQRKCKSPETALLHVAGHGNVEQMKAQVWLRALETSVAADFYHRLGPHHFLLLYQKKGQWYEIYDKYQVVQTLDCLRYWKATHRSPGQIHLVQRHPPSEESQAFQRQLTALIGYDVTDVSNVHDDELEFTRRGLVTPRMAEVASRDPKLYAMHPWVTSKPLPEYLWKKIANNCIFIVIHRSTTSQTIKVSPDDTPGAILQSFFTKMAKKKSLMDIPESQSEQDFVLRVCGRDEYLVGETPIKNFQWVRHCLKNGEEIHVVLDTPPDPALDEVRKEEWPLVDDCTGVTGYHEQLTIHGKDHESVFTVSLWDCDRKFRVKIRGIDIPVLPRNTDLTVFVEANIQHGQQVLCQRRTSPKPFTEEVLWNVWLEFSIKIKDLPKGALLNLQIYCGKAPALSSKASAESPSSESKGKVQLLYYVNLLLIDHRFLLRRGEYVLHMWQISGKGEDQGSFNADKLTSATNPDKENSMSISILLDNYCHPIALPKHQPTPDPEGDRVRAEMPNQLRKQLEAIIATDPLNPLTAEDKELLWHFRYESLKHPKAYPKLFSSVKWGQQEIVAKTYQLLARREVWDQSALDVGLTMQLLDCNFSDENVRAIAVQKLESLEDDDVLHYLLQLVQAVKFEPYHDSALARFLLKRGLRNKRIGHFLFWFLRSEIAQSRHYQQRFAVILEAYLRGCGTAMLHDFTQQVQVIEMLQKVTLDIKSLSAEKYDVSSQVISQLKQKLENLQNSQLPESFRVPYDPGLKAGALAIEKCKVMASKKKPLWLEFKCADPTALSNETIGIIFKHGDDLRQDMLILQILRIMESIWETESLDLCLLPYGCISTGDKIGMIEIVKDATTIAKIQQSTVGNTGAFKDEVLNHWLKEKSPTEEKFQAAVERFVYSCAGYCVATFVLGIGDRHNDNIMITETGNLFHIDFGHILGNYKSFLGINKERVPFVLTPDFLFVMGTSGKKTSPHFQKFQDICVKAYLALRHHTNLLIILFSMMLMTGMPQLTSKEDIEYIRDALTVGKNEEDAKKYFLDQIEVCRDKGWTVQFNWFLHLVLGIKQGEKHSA
pIC50: −log10 of the molar value.
The label depends only on pIC50: Condition met if it is at least 7, Condition not met if it is smaller.

# check: pIC50 of C[C@H](Nc1nc(N)nc(N)c1C#N)c1nc2c(F)ccc(Cl)c2c(=O)n1-c1cccnc1 is greater than or equal to 7
Condition met

hey, is pIC50 for this one >= 7? C[C@H](Nc1nc(N)nc(N)c1C#N)c1nc2cccc(Cl)c2c(=O)n1-c1cncc(Cl)c1
Condition not met

Quick check: does C[C@H](Nc1nc(N)nc(N)c1C#N)c1nc2cccc(Cl)c2c(=O)n1-c1cncc(C2CC2)c1 have pIC50 greater than or equal to 7?
Condition not met

I'd appreciate it if you could say whether Cc1c(F)cncc1-n1c([C@H](C)Nc2nc(N)nc(N)c2C#N)nc2cccc(Cl)c2c1=O (stereo in doubt; 28) has pIC50 at least equal to 7.
Condition not met

* * *

Molecular target: Phosphatidylinositol 4,5-bisphosphate 3-kinase catalytic subunit delta isoform (Homo sapiens)
Sequence (O00329 whole entry): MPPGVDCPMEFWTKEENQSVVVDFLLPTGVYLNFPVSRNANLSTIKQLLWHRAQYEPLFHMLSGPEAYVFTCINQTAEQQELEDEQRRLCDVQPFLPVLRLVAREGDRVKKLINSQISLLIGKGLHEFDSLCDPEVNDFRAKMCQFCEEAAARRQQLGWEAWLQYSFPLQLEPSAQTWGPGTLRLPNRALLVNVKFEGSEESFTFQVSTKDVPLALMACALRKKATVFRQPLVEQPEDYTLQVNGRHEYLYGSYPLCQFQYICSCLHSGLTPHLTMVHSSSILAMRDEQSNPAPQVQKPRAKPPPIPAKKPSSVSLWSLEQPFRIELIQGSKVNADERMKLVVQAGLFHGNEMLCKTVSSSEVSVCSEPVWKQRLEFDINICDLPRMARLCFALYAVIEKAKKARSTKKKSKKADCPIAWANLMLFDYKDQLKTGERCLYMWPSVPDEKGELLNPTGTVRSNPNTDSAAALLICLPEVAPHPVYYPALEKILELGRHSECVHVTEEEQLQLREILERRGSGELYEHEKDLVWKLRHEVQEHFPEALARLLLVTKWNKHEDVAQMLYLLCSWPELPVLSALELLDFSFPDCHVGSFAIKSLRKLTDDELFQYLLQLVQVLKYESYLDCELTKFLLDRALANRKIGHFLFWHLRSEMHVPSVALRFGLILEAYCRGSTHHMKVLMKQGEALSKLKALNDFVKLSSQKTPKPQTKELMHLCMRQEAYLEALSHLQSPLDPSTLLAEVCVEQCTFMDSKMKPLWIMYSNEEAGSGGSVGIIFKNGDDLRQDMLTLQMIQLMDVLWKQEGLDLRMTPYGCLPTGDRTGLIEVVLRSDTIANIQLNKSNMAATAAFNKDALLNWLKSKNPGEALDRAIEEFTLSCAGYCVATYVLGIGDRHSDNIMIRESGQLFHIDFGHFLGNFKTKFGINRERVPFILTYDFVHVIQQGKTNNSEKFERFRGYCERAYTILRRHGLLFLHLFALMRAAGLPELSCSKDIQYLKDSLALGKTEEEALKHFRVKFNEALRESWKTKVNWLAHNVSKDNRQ
Assay: Inhibition of PI3Kdelta in human whole blood assessed as inhibition of BCR-induced B-cell activation
readout-label: pEC50
Hey, just a heads up that pEC50 is the negative log base 10 of the concentration in molar.

What value of pEC50 has been reported for the following compound? N#Cc1c(N)nc(N)nc1N[C@H](c1nc2c(F)ccc(Cl)c2c(=O)n1-c1cccnc1)C1CC1
8.62
